Tested on: 786-0 renal
Assay: NCI-60 one-dose screen, 48 h (100 = growth as untreated, 0 = no growth, -100 = all killed)
Conditions: 10 µM unless noted
Compounds without any hit were thinned out: in the full panel of roughly 83,000, 20% have a hit.
quantity: growth (%)
Return type: number; implicit unit %.

# example entries with known answers
COc1ccc(/C=C(\C#N)c2cc(OC)c3c(c2)OCO3)cc1; 20
COc1ccncc1S(=O)(=O)NC(=O)Nc1ccc(Cl)c(Cl)c1; 94.2

For the next question, use this compound.
[ask] # growth lookup, item `C=C1C(=O)O[C@H]2[C@H]1CC/C(Cn1cc(-c3cccc(Cl)c3)nn1)=C\CC[C@@]1(C)O[C@@H]21`
[reply] -83.9
